METHOD: Stability of the analytes in rat plasma (QC samples)
Format: in vitro ADME
CONDITION_NOTES: high QC level, deviation from nominal conc
MEASURED_PROPERTY: RE, Room temperature for 12 h (%)

Data request: Identify RE, Room temperature for 12 h associated with the molecule COc1ccc2ccc(=O)oc2c1CC(O)C(C)(C)O (stereo not drawn) [Meranzin hydrate]
Data returned: 7.34

a = C[C@@H]1O[C@@H](O[C@H]2[C@H](Oc3cc(O)c4c(c3)O[C@H](c3ccc(O)cc3)CC4=O)O[C@H](CO)[C@@H](O)[C@@H]2O)[C@H](O)[C@H](O)[C@H]1O [Naringin, naringin]
b = COc1ccc([C@@H]2CC(=O)c3c(O)cc(O[C@@H]4O[C@H](CO)[C@@H](O)[C@H](O)[C@H]4O[C@@H]4O[C@@H](C)[C@H](O)[C@@H](O)[C@H]4O)cc3O2)cc1O [Neohesperidin, neohesperidin]
Data request: Looking at recorded values for RE, Room temperature for 12 h, does a or b come in lower? # reply format: chosen label
Data returned: a

----------
METHOD: Stability of the analytes in rat plasma (QC samples)
Format: in vitro ADME
CONDITION_NOTES: high QC level, deviation from nominal conc
MEASURED_PROPERTY: RE, Room temperature for 12 h (%)

Would you please look over these solved cases?
Data request: Identify RE, Room temperature for 12 h associated with the compound COc1ccc([C@@H]2CC(=O)c3c(O)cc(O[C@@H]4O[C@H](CO[C@@H]5O[C@@H](C)[C@H](O)[C@@H](O)[C@H]5O)[C@@H](O)[C@H](O)[C@H]4O)cc3O2)cc1O [Hesperidin, hesperidin]
Data returned: 4.88

Data request: Identify RE, Room temperature for 12 h associated with the compound COc1ccc(-c2cc(=O)c3c(OC)c(OC)c(OC)c(OC)c3o2)cc1OC [Nobiletin, nobiletin]
Data returned: 4.48

a = C[C@@H]1O[C@@H](OC[C@H]2O[C@@H](Oc3cc(O)c4c(c3)O[C@H](c3ccc(O)cc3)CC4=O)[C@H](O)[C@@H](O)[C@@H]2O)[C@H](O)[C@H](O)[C@H]1O [Narirutin, narirutin]
b = O=C1C[C@@H](c2ccc(O)cc2)Oc2cc(O)cc(O)c21 [Naringenin, naringenin]
Data request: Which value of RE, Room temperature for 12 h is greater, the one for a or the one for b ? # reply format: chosen label
Data returned: a
(a: 5.53%, b: -2.56%)

----------
METHOD: Stability of the analytes in rat plasma (QC samples)
Assay type: in vitro ADME
CONDITION_NOTES: high QC level, deviation from nominal conc
Protocol: The stabilities of the 7 analytes in rat plasma was evaluated by assaying six replicates of QC samples at low, middle, and high concentrations in practical experimental conditions: samples post-preparation stored in auto-sampler condition for 12 h, and storage at -80°C for 1 month. The freeze- thaw stability was determined after the experience of three freeze-thaw cycles (from -80°C to room temperature). […]
MEASURED_PROPERTY: RE, -80°C for 1 month (%)

Data request: Identify RE, -80°C for 1 month associated with the molecule C[C@@H]1O[C@@H](O[C@H]2[C@H](Oc3cc(O)c4c(c3)O[C@H](c3ccc(O)cc3)CC4=O)O[C@H](CO)[C@@H](O)[C@@H]2O)[C@H](O)[C@H](O)[C@H]1O
Data returned: 4.57

Data request: Identify RE, -80°C for 1 month associated with the molecule O=C1C[C@@H](c2ccc(O)cc2)Oc2cc(O)cc(O)c21
Data returned: 3.14

Data request: Identify RE, -80°C for 1 month associated with the molecule COc1ccc([C@@H]2CC(=O)c3c(O)cc(O[C@@H]4O[C@H](CO[C@@H]5O[C@@H](C)[C@H](O)[C@@H](O)[C@H]5O)[C@@H](O)[C@H](O)[C@H]4O)cc3O2)cc1O
Data returned: 0.02

Data request: Identify RE, -80°C for 1 month associated with the molecule COc1ccc([C@@H]2CC(=O)c3c(O)cc(O[C@@H]4O[C@H](CO)[C@@H](O)[C@H](O)[C@H]4O[C@@H]4O[C@@H](C)[C@H](O)[C@@H](O)[C@H]4O)cc3O2)cc1O
Data returned: 2.03

A = COc1ccc(-c2cc(=O)c3c(OC)c(OC)c(OC)c(OC)c3o2)cc1OC
B = C[C@@H]1O[C@@H](OC[C@H]2O[C@@H](Oc3cc(O)c4c(c3)O[C@H](c3ccc(O)cc3)CC4=O)[C@H](O)[C@@H](O)[C@@H]2O)[C@H](O)[C@H](O)[C@H]1O
C = COc1ccc2ccc(=O)oc2c1CC(O)C(C)(C)O (stereo not shown) [Meranzin hydrate]
Data request: Hello, I need these entries ordered by RE, -80°C for 1 month, highest reading first. Thanks! Please reply with the labels ordered as requested. Many thanks.
Data returned: C, B, A

----------
METHOD: Stability of the analytes in rat plasma (QC samples)
Type: in vitro ADME
CONDITION_NOTES: middle QC level, deviation from nominal conc
MEASURED_PROPERTY: RE, Room temperature for 12 h (%)

Would you please look over these solved cases?
Data request: Identify RE, Room temperature for 12 h associated with the compound COc1ccc(-c2cc(=O)c3c(OC)c(OC)c(OC)c(OC)c3o2)cc1OC
Data returned: 5.03

Data request: Identify RE, Room temperature for 12 h associated with the compound O=C1C[C@@H](c2ccc(O)cc2)Oc2cc(O)cc(O)c21
Data returned: 10.67

Data request: Identify RE, Room temperature for 12 h associated with the compound C[C@@H]1O[C@@H](O[C@H]2[C@H](Oc3cc(O)c4c(c3)O[C@H](c3ccc(O)cc3)CC4=O)O[C@H](CO)[C@@H](O)[C@@H]2O)[C@H](O)[C@H](O)[C@H]1O
Data returned: 6.83

Data request: Identify RE, Room temperature for 12 h associated with the compound COc1ccc2ccc(=O)oc2c1CC(O)C(C)(C)O (stereo not shown) [Meranzin hydrate]
Data returned: 2.66

P = C[C@@H]1O[C@@H](OC[C@H]2O[C@@H](Oc3cc(O)c4c(c3)O[C@H](c3ccc(O)cc3)CC4=O)[C@H](O)[C@@H](O)[C@@H]2O)[C@H](O)[C@H](O)[C@H]1O
Q = COc1ccc([C@@H]2CC(=O)c3c(O)cc(O[C@@H]4O[C@H](CO)[C@@H](O)[C@H](O)[C@H]4O[C@@H]4O[C@@H](C)[C@H](O)[C@@H](O)[C@H]4O)cc3O2)cc1O
R = COc1ccc([C@@H]2CC(=O)c3c(O)cc(O[C@@H]4O[C@H](CO[C@@H]5O[C@@H](C)[C@H](O)[C@@H](O)[C@H]5O)[C@@H](O)[C@H](O)[C@H]4O)cc3O2)cc1O
Data request: Hello, I need these entries ordered by RE, Room temperature for 12 h, highest reading first. Thanks! Please reply with the labels ordered as requested. Many thanks.
Data returned: Q, P, R
(Q: 7.28%, P: 1.84%, R: 0.91%)

----------
METHOD: Stability of the analytes in rat plasma (QC samples)
Assay type: in vitro ADME
CONDITION_NOTES: low QC level, deviation from nominal conc
MEASURED_PROPERTY: RE, -80°C for 1 month (%)

Would you please look over these solved cases?
Data request: Identify RE, -80°C for 1 month associated with the molecule COc1ccc([C@@H]2CC(=O)c3c(O)cc(O[C@@H]4O[C@H](CO)[C@@H](O)[C@H](O)[C@H]4O[C@@H]4O[C@@H](C)[C@H](O)[C@@H](O)[C@H]4O)cc3O2)cc1O [Neohesperidin, neohesperidin]
Data returned: 3.31

Data request: Identify RE, -80°C for 1 month associated with the molecule COc1ccc([C@@H]2CC(=O)c3c(O)cc(O[C@@H]4O[C@H](CO[C@@H]5O[C@@H](C)[C@H](O)[C@@H](O)[C@H]5O)[C@@H](O)[C@H](O)[C@H]4O)cc3O2)cc1O [Hesperidin, hesperidin]
Data returned: 6.36

Data request: Identify RE, -80°C for 1 month associated with the molecule O=C1C[C@@H](c2ccc(O)cc2)Oc2cc(O)cc(O)c21 [Naringenin, naringenin]
Data returned: -7.39

I = C[C@@H]1O[C@@H](OC[C@H]2O[C@@H](Oc3cc(O)c4c(c3)O[C@H](c3ccc(O)cc3)CC4=O)[C@H](O)[C@@H](O)[C@@H]2O)[C@H](O)[C@H](O)[C@H]1O [Narirutin, narirutin]
II = C[C@@H]1O[C@@H](O[C@H]2[C@H](Oc3cc(O)c4c(c3)O[C@H](c3ccc(O)cc3)CC4=O)O[C@H](CO)[C@@H](O)[C@@H]2O)[C@H](O)[C@H](O)[C@H]1O [Naringin, naringin]
Data request: Which value of RE, -80°C for 1 month is greater, the one for I or the one for II ? # reply format: chosen label
Data returned: II

A = COc1ccc2ccc(=O)oc2c1CC(O)C(C)(C)O (stereo not shown) [Meranzin hydrate]
B = COc1ccc(-c2cc(=O)c3c(OC)c(OC)c(OC)c(OC)c3o2)cc1OC [Nobiletin, nobiletin]
Data request: Which value of RE, -80°C for 1 month is greater, the one for A or the one for B ? # reply format: chosen label
Data returned: A
